Reference for the values: patent US20260166021A1

test: Solubility of Form C in binary solvent systems (TABLE 22); type: physicochemical; details: ethanol/n-heptane, organic solvent or mixture; EtOH, ratio of n-heptane to primary 7.7 (1st test point)

Molecule	solubility
CC[C@H](C)C(=O)N1CCC(NC(=O)Nc2ccc(OC(F)(F)F)c(F)c2)CC1 [Form C]	38 mg/mL

###

test: Equilibrium-solubility screening in solvents and excipients; assay type: physicochemical; details: Tween 80, 10x, aqueous with cosolvent or surfactant or cyclodextrin, thermodynamic from solid
Reported endpoint: solubility thermodynamic at 24 h

Compound	Reported value
CC[C@H](C)C(=O)N1CCC(NC(=O)Nc2ccc(OC(F)(F)F)c(F)c2)CC1 [Form D]	< 100 µg/mL

###

assay: Solubility screening of Formula (I) in crystallization solvents at RT and 50° C. (TABLE 3); format: physicochemical; settings: methanol, organic solvent or mixture, thermodynamic from solid, MeOH; RT; read-out: Solubility Range

Chemical structure	solubility
CC[C@H](C)C(=O)N1CCC(NC(=O)Nc2ccc(OC(F)(F)F)c(F)c2)CC1	≥ 43.2 mg/mL

###

experiment: Solubility of Form C in binary solvent systems (TABLE 22); assay type: physicochemical; settings: organic solvent or mixture; IPA, ratio of n-heptane to primary 13.9 (2nd test point)

Molecule	solubility / µg/mL
CC[C@H](C)C(=O)N1CCC(NC(=O)Nc2ccc(OC(F)(F)F)c(F)c2)CC1 [Form C]	10000

###

assay: Solubility screening of Formula (I) in crystallization solvents at RT and 50° C. (TABLE 3); type: physicochemical; details: n-propanol, organic solvent or mixture, thermodynamic from solid, n-Propanol; RT; read-out: Solubility Range

Chemical structure	solubility
CC[C@H](C)C(=O)N1CCC(NC(=O)Nc2ccc(OC(F)(F)F)c(F)c2)CC1	≥ 52.2 mg/mL
